target: biotinylated recombinant ESO157/HLA-A*02:03 complex (human); experiment: BLI (Octet QK), biotinylated pMHC on streptavidin sensor, BsAb 10 ug/mL
For each record, write down the corresponding Kd.
Answers are plain numbers, in nM.

Please review the entries below; each comes with its answer.
ESO157 BsAb #52 (anti-ESO157/HLA-A*02:01 scFv x anti-human CD3epsilon scFv, single chain) (bispecific antibody) QSVLTQPPSVSGAPGQRVTISCTGSSSNIGAGYDVHWYQQLPGTAPKLLIYGDTNRPSGVPDRISGSKSGTSASLAITGLQAEDEADYYCQSYDSNLYTYVFGTGTKVTVLGSRGGGGSGGGGSGGGGSLEMAQVQLVQSGAEVKKPGASVKVSCKASGYTFTSYGISWVRQAPGQGLEWMGWISAYNGNTNYAQKLQGRVTMTTDTSTSTAYMELRSLRSDDTAVYYCARYSGYYAGDSWGQGTLVTVSS: 82
ESO157 BsAb #66 (anti-ESO157/HLA-A*02:01 scFv x anti-human CD3epsilon scFv, single chain) (bispecific antibody) QSVLTQPPSVSGAPGQRVTISCTGSSSNIGAGYDVHWYQQLPGTAPKLLIYGNSNRPSGVPDRFSGSKSGTSASLAITGLQAEDEADYYCQSYDSSLSGSWVFGGGTKLTVLGSRGGGGSGGGGSGGGGSLEMAEVQLVESGAEVKRPGASVKVSCKASGYTFTSYGISWVRQAPGQGLEWMGRFIPNLNKGNSAHKFEGRVSFTADKFTNTAYMELRGLKSDDTAVYYCARGDYGSDQWGQGTLVTVSS: 47
ESO157 BsAb #76 (anti-ESO157/HLA-A*02:01 scFv x anti-human CD3epsilon scFv, single chain) (bispecific antibody) QSVVTQPPSLSGAPGQRVTISCNGSGSNIGAGYDVHWYQQLPGTAPKLLIYGNSNRPSGVPDRFSGSKSGTSASLAITGLQAEDEADYYCQSYDSSLSGWGIFGGGTKLTVLGSRGGGGSGGGGSGGGGSLEMAEVQLVQSGAEVKKPGSSVKVSCKASGGTFSSYAISWVRQAPGQGLEWMGGIIPIFGTANYAQKFQGRVTITADESTSTAYMELSSLRSEDTAVYYCARYDSYVYDEWGQGTLVTVSS: 47
ESO157 BsAb #148 (anti-ESO157/HLA-A*02:01 scFv x anti-human CD3epsilon scFv, single chain) (bispecific antibody, V domains shown, not shown: small tags and cut ends) VH: EVQLVQSGAEVKKPGASVKVSCKASGGTFSSYAISWVRQAPGQGLEWMGGIIPIFGTANYAQKFQGRVTITADKSTSTAYMELSSLRSEDTAVYYCARSYWSWTPYDPWGQGTLVTVSS VL: LPVLTQPPSVSVAPGKTARITCGGNNIGSKSVHWYQQKPGQAPVLVIYYDSDRPSGIPERFSGSNSGNTATLTISRVEAGDEADYYCQVWDSSSDHYVFGTGTKVTVL: 85

Ask: Please report the recorded Kd for ESO157 BsAb #35 (anti-ESO157/HLA-A*02:01 scFv x anti-human CD3epsilon scFv, single chain) (bispecific antibody, not shown: small tags and cut ends, also called NY-ESO-1 BsAb #35) scFv: QSVVTQPPSVSAAPGQKVTISCSGSSSNIGNNYVSWYQQLPGTAPKLLIYDNNKRPSGIPDRFSGSKSGTSATLGITGLQTGDEADYYCGTWDSSLSAWVFGGGTKLTVLGSRGGGGSGGGGSGGGGSLEMAQVQLVQSGAEVKKPGSSVKVSCKASGDTFSSYSISWVRQAPGQGLEWMGRIIPILGIANYAQKYQGRVTLSADKSTSTSYMELNSLRSEDTAVYYCARDWSYSIDYWGQGTLVTVSS .
Reply: 50
